- TARGET DESC: IGF-IIE (amino acids 1-104 of pro-IGF-II) (human, UniProt P01344 25-128)
- Sequence (P01344 25-128): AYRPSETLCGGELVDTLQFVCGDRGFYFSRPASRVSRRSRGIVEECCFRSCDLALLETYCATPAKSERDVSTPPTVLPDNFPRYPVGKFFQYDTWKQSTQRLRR
- ASSAY NAME: cell-based or functional assay
Note to self: use Criterion met only for IC50, IGF-IIE stimulated Ba/F3 cell proliferation (MTS) readings below 3 µg/mL; a reading exactly at 3 µg/mL still gets Criterion not met.

# BINDER, LABEL
rows = [
    ("M0064-E04 Fab (Fab, V domains shown, soluble Fab (sFab); also called R0032-A03; 566A-M0064-E04) VH: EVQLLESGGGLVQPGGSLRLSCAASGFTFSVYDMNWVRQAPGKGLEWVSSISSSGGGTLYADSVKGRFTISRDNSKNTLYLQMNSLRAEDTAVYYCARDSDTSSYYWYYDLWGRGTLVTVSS VL: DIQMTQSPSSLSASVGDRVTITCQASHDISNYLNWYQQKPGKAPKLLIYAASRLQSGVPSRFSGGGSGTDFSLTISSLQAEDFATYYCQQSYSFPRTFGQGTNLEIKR", "Criterion not met"),
    ("M0068-E03 Fab (Fab, V domains shown, soluble Fab (sFab); heavy constant part carries His6 and myc tags; also called R0032-C01) VH: EVQLLESGGGLVQPGGSLRLSCAASGFTFSEYVMAWVRQAPGKGLEWVSSIVSSGGYTKYADSVKGRFTISRDNSKNTLYLQMNSLRAEDTAVYYCAKDMTYSGDAFDVWGQGTMVTVSS VL: DIQMTQSPSSLSASVGDRVTITCRASQSINTYLNWYQQKPGKAPKVLIHAASTLESGVPSRFSGSGSATEFTLTISSLQPEDFATFYCQQSYSVPFTFGPGTRLSSKR", "Criterion not met"),
]

## Input IC50, IGF-IIE stimulated Ba/F3 cell proliferation (MTS) under 3 µg/mL? Item: M0063-F02 Fab (Fab, V domains shown, soluble Fab (sFab); also called R0032-A01) VH: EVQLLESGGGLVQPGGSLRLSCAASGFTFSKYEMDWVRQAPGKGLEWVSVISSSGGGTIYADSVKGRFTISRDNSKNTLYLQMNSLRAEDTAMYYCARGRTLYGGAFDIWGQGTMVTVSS VL: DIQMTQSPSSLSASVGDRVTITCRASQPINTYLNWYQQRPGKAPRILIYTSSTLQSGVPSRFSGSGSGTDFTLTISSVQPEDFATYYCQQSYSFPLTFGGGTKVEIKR
## Output Criterion met

## Input Now this one: M0064-F02 Fab (Fab, V domains shown, soluble Fab (sFab); also the Fab crystallised with IGF-II; also called R0032-A11; 566A-M0064-F02) VH: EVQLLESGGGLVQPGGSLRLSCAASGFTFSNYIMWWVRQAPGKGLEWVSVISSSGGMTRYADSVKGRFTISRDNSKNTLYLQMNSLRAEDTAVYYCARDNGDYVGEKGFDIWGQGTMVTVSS VL: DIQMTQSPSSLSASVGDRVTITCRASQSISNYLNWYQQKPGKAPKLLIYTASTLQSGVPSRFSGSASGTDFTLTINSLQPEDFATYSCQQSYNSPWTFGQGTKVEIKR
## Output Criterion not met

## Input Now this one: M0072-G06 Fab (Fab, V domains shown, soluble Fab (sFab); also called R0032-C05) VH: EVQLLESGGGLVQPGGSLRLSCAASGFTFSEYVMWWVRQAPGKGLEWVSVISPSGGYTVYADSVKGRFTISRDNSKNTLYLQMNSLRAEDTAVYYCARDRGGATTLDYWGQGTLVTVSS VL: DIQMTQSPSTLSASVGDRVTITCRASQTISSWLAWYQQKPGKAPKLMIYKAASLGSEVPSRFSGSGSGTEFTLTISSLQPEDFSTYYCQQYKTYPVTFGQGTRLEIKR
## Output Criterion met

## Input Now this one: M0072-C06 Fab (Fab, V domains shown, soluble Fab (sFab); also called R0032-A09) VH: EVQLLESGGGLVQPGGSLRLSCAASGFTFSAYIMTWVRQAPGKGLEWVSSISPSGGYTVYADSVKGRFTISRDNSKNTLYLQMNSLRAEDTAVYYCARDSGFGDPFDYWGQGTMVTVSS VL: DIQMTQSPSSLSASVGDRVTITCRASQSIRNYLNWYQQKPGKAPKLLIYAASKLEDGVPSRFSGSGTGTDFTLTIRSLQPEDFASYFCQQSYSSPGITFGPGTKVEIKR
## Output Criterion met
